Ref: patent US12617807B2

# EXPERIMENT SUMMARY: max solubility in 1×PBS, 20% PEG400
# Type: physicochemical
# MEASUREMENT CONDITIONS: 1×PBS with 20% PEG400, aqueous with cosolvent or surfactant or cyclodextrin

- COMPOUND: "C=CCN1CCC23c4c5ccc(OCc6ccc(B(O)O)cc6)c4O[C@@H]2C(=O)CC[C@@]3(O)C1C5 (stereo partly shown)"
  solubility: "~50 mg/mL"
